assay: chemical genetic growth profiling, strain panel (AID 1159580);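 also: tested at 20 µM; growth read once vehicle control cultures reached saturation at 30 °C; lower values mean less growth of the strain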; settings: S. cerevisiae deletion strains, growth OD, locus YCL011C, strain gbp2
About 2,000 (36%) of roughly 5,500 compounds were called active. About 18% were inconclusive and are not listed. Rule as the data show it: active = normalized growth mostly below about 0.91 (no sharp cut-off); inconclusive = no clear call, values can overlap the other calls; inactive = mostly above about 0.92. The list shows a part of the results.
Classes used: active, inactive

| COMPOUND | CATEGORY |
| --- | --- |
| CC1(C)S[C@@H]2[C@H](NC(=O)COc3ccccc3)C(=O)N2[C@H]1C(=O)O | inactive |
| C[C@H]1C(=O)O[C@@H]2CCN3CC=C(COC(=O)[C@](C)(O)[C@]1(C)O)[C@H]23 | inactive |
| CCCCC/C=C\C/C=C\C/C=C\C/C=C\CCCC(=O)O | inactive |
| Cc1nccc2c1[nH]c1ccccc12 | inactive |
| CC(C)(O)CC[C@@H](O)[C@](C)(O)C1CC[C@@]2(O)C3=CC(=O)C4C[C@@H](O)[C@@H](O)C[C@]4(C)C3CC[C@]12C (stereo not given in full) | inactive |
| COP(=S)(OC)SCn1nnc2ccccc2c1=O | inactive |
| CCCc1nc(C(C)(C)O)c(C(=O)OCc2oc(=O)oc2C)n1Cc1ccc(-c2ccccc2-c2nn[nH]n2)cc1 | inactive |
| CC(C)=CCC/C(C)=C/COc1ccc2ccc(=O)oc2c1 | inactive |
| COc1ccc2ccc(=O)oc2c1CC=C(C)C | active |
| O=C(O)CCCN1C(=O)c2cccc3cccc(c23)C1=O | inactive |
| COc1ccc(Cc2nccc3cc(OC)c(OC)cc23)cc1OC | inactive |
| CC(=O)Oc1ccc2c(c1)CCC1C2CC[C@@]2(C)C1CC[C@@H]2OC(C)=O (stereo not given in full) | inactive |
| CC(C(=O)O)c1ccc(N2Cc3ccccc3C2=O)cc1 (stereo not given) | inactive |
| Nc1ncnc2nc[nH]c12 | inactive |
| Cc1cc(O)c2c(c1O)C(=O)c1c(O)cc(C)c(O)c1C2=O | inactive |
| CCOC(=O)C1=C(C)NC(C)=C(C(=O)OC)C1c1cccc([N+](=O)[O-])c1 (stereo not given) | inactive |
| COC(=O)C[C@H]1C(C)(C)[C@@H](OC(C)=O)[C@@H]2CC3C4CC(=O)O[C@@H](c5ccoc5)[C@]4(C)CCC3[C@@]1(C)C2=O (stereo not given in full) | inactive |
| O=C1c2ccc(O)c(O)c2C(=O)c2c(O)ccc(O)c21 | active |
| O=c1[nH]cnc2nc[nH]c12 | inactive |
| COc1cc2ccc(=O)oc2c2ccoc12 | active |
| c1ccc2c(c1)[nH]c1cnccc12 | inactive |
| N#C/C(=C\c1ccc(O)cc1)C(=O)O | inactive |
| CC(=O)O[C@@H]1CC2C(C)(C)[C@H](O)C[C@H](O)[C@]2(C)C2CC[C@@]3(C)C(=CC(=O)O[C@H]3c3ccoc3)[C@@]21C (stereo not given in full) | inactive |
| O=c1[nH]c2ccccc2n1C1CCN(CCCC(c2ccc(F)cc2)c2ccc(F)cc2)CC1 | inactive |
| COc1cc2ccc(=O)oc2cc1O | inactive |
| C=C(C)c1cc2cc(C(C)=O)c(O)cc2o1 | inactive |
| CCNc1nc(Cl)nc(NC(C)C)n1 | inactive |
| CCOc1ccc(Cc2nccc3cc(OCC)c(OCC)cc23)cc1OCC | inactive |
| CN(C)c1nc(N(C)C)nc(N(C)C)n1 | inactive |
| COc1cc2ccc(=O)oc2c(OC)c1OC | inactive |
| CC(=O)Oc1ccc2c(c1)CCC1C2CCC2(C)C1CC(OC(C)=O)C2OC(C)=O (stereo not given) | inactive |
| O=c1[nH]c2ccccc2n1CCCN1CCC(n2c(=O)[nH]c3cc(Cl)ccc32)CC1 | inactive |
| O=C(CCCN1CC=C(n2c(=O)[nH]c3ccccc32)CC1)c1ccc(F)cc1 | inactive |
| CC(=O)OC1CCC23C(=O)OC45CCC(C6=CC(=O)OC6)C4(C)CCC2C5CCC3(O)C1 (stereo not given) | inactive |
| C[C@]12CCC3c4ccc(O)cc4CCC3C1CC[C@@H]2OC(=O)CCC1CCCC1 (stereo not given in full) | inactive |
| O=c1ccc2ccc(O)c(O)c2o1 | inactive |
| Fc1ccc(C(c2ccc(F)cc2)N2CCN(C/C=C/c3ccccc3)CC2)cc1 | active |
| CC(C)=CCOc1cc2oc(=O)ccc2cc1O | inactive |
| CCCCCN=C(N)N/N=C\c1c[nH]c2ccc(OC)cc12 | inactive |
| O=C1c2ccccc2C(=O)c2c(O)c(O)cc(O)c21 | active |
| CCOc1nc2cccc(C(=O)OC(C)OC(=O)OC3CCCCC3)c2n1Cc1ccc(-c2ccccc2-c2nn[nH]n2)cc1 (stereo not given) | inactive |
| O=c1ccc2cc(O[C@@H]3O[C@H](CO)[C@@H](O)[C@H](O)[C@H]3O)c(O)cc2o1 | inactive |
| CNC(=O)CSP(=S)(OC)OC | inactive |
| CN1CCN(C(c2ccccc2)c2ccccc2)CC1 | inactive |
| CC(C)=CCOc1c2occc2cc2ccc(=O)oc12 | active |
